Tested on: PANC-1 (pancreatic cancer)
assay-notes: Solid tumor cell growth inhibition, MTT, 72 h (Example 7)
Format: cell-based, human
condition-details: Homo sapiens; 72 h, MTT, PANC-1
measurement-type: IC90 (µg/mL)

>>> readout_number("COc1ccc2cc1Oc1ccc(cc1)C[C@H]1c3cc(c(OC)cc3CCN1C)Oc1c(OC)c(OC)c(COCc3cccnc3)c3c1[C@H](C2)N(C)CC3 [BS-TE-411]")
8.92

[A] COc1ccc2cc1Oc1ccc(cc1)C[C@H]1c3cc(c(OC)cc3CCN1C)Oc1c(OC)c(OC)c(CNCc3ccccn3)c3c1[C@H](C2)N(C)CC3 [BS-TE-352]
[B] COc1ccc2cc1Oc1ccc(cc1)C[C@H]1c3cc(c(OC)cc3CCN1C)Oc1c(OC)c(OC)c(CN3CCC(O)C3)c3c1[C@H](C2)N(C)CC3 (stereo partly drawn) [BS-TE-322]
Input line: Could you point out whether the larger IC90 belongs to A or to B ? Provide the label of your selected option as the answer.
Output line: A

FYI, the data here is from patent US9133207B2.
